B1: ZNF511 (parent)
chain: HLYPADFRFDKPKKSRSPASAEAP

# Variants of: B1
# measurementDescription: protein stability index of a GFP-peptide fusion (GPS, HEK-293T) (PSI 1-6); higher = more stable;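 note: lentivirally expressed fusions sorted by FACS into six bins by GFP to DsRed ratio, PSI derived from sequencing read proportions per bin multiplied by bin number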
# experimentalConditions: c terminus: a fixed tail appended
resultType: protein stability index

1. S15L    2.92
2. K14T    2.8
3. E22T    2.64
4. R8N    3.1
5. S17T    2.97
6. P12W    3.02
7. A23G    3.28
8. F9N    2.63
9. K11I    3.56
10. D6G    3.23
11. F7S    4.25
12. K13S    2.91
13. S17Q    3
14. P12S    2.64
15. F7Q    4.62
16. F9Q    2
17. F9P    2.35
18. F9T    2.85
19. K14C    2.77
20. A19W    2
21. S15A    3.39
22. Y3N    2.43
23. S17E    3.18
24. P24T    2.71
25. K14A    3.3
26. A21Y    2.95
27. K14H    2.37
